- System: Gp-Ia: Penicillin(PC)-sensitive S. aureus (5 strains)
- assay-summary: MIC, two-fold serial agar dilution, Gp-Ia
- Format: cell-based
- condition-label: Staphylococcus aureus, Mueller-Hinton agar, read-out: Geometric mean of MIC
experimental-readout: MIC (µg/mL)

1. CO/N=C(\C(=O)NC1C(=O)N2C(C(=O)[O-])=C(/C=C/C[N+]3(C)Cc4cc(O)c(O)cc4C3)CS[C@H]12)c1csc(N)n1 (stereo partly shown)    1.6
2. CC(C)(O/N=C(\C(=O)NC1C(=O)N2C(C(=O)[O-])=C(/C=C/C[N+]3(C)Cc4cc(O)c(O)cc4C3)CSC12)c1csc(N)n1)C(=O)O (stereo not shown)    12.5
3. CO/N=C(\C(=O)NC1C(=O)N2C(C(=O)[O-])=C(/C=C\C[N+]3(C)Cc4cc(O)c(O)cc4C3)CS[C@H]12)c1csc(N)n1 (stereo partly shown)    4.7
4. C[N+]1(C/C=C/C2=C(C(=O)[O-])N3C(=O)C(NC(=O)/C(=N\OCC(=O)O)c4csc(N)n4)C3SC2)Cc2cc(O)c(O)cc2C1 (stereo not shown)    7.2

----------
In this section we review reported MIC values for a set of compounds.
- System: Gn-III: Ps. aeruginosa (7)
- assay-summary: MIC, two-fold serial agar dilution, Gn-III
- Type: cell-based
- condition-label: Pseudomonas aeruginosa, Gn-III, 7 strains; Mueller-Hinton agar; read-out: Geometric mean of MIC
experimental-readout: MIC (µg/mL)

1) CO/N=C(\C(=O)NC1C(=O)N2C(C(=O)[O-])=C(/C=C/C[N+]3(C)Cc4cc(O)c(O)cc4C3)CS[C@H]12)c1csc(N)n1 (stereo partly drawn)    2.6
2) CC(C)(O/N=C(\C(=O)NC1C(=O)N2C(C(=O)[O-])=C(/C=C/C[N+]3(C)Cc4cc(O)c(O)cc4C3)CSC12)c1csc(N)n1)C(=O)O (stereo not drawn)    1.3
3) C[N+]1(C/C=C/C2=C(C(=O)[O-])N3C(=O)C(NC(=O)/C(=N\OCC(=O)O)c4csc(N)n4)C3SC2)Cc2cc(O)c(O)cc2C1 (stereo not drawn)    0.49

----------
- Test system: M. morgani 1510/9
- assay-summary: MIC, agar dilution
- Assay type: cell-based
- condition-label: Mueller-Hinton agar pH 7.2, 32° C., 18 hr, 10^6 cells/ml
experimental-readout: MIC (µg/mL)

1) Nc1nc(/C(=N/O)C(=O)NC2C(=O)N3C(C(=O)[O-])=C(/C=C/C[n+]4cc5cc(O)c(O)cc5cn4)CS[C@H]23)cs1 (stereo partly drawn)    0.1
2) C[n+]1cn(C/C=C/C2=C(C(=O)[O-])N3C(=O)C(NC(=O)/C(=N\OC(C)(C)C(=O)O)c4csc(N)n4)C3SC2)c2cc(O)c(O)cc21 (stereo not drawn)    0.1
3) CC(C)(O/N=C(\C(=O)NC1C(=O)N2C(C(=O)[O-])=C(/C=C/C[n+]3cc4cc(O)c(O)cc4cn3)CS[C@H]12)c1csc(N)n1)C(=O)O (stereo partly drawn)    0.05

----------
We begin with a simple list: items and their reported MIC.
- Test system: P. aeruginosa IPM-8
- assay-summary: MIC, agar dilution
- Type: cell-based
- condition-label: Pseudomonas aeruginosa, IPM8, Mueller-Hinton agar pH 7.2, 32° C., 18 hr, 10^6 cells/ml
experimental-readout: MIC (mg/L)

1) Nc1nc(/C(=N/O)C(=O)NC2C(=O)N3C(C(=O)O)=C(/C=C/Cn4cnc5cc(O)c(O)cc54)CS[C@H]23)cs1 (stereo partly shown)    3.1
2) CO/N=C(\C(=O)NC1C(=O)N2C(C(=O)O)=C(/C=C/Cn3cnc4cc(O)c(O)cc43)CS[C@H]12)c1csc(N)n1 (stereo partly shown)    25

----------
Below are compounds with their MIC as measured on P. rettgeri IPM-14.
experimental-readout: MIC (µg/mL)

1. CC(C)(O/N=C(\C(=O)NC1C(=O)N2C(C(=O)O)=C(/C=C/Cn3cnc4cc(O)c(O)cc43)CS[C@H]12)c1csc(N)n1)C(=O)O (stereo partly shown)    1.6
2. CC(C)(O/N=C(\C(=O)NC1C(=O)N2C(C(=O)[O-])=C(/C=C/C[n+]3cc4cc(O)c(O)cc4cn3)CS[C@H]12)c1csc(N)n1)C(=O)O (stereo partly shown)    0.1
3. Nc1nc(/C(=N/O)C(=O)NC2C(=O)N3C(C(=O)[O-])=C(/C=C/C[n+]4cc5cc(O)c(O)cc5cn4)CS[C@H]23)cs1 (stereo partly shown)    1.6
4. C[n+]1cn(C/C=C/C2=C(C(=O)[O-])N3C(=O)C(NC(=O)/C(=N\OC(C)(C)C(=O)O)c4csc(N)n4)C3SC2)c2cc(O)c(O)cc21 (stereo not shown)    0.2
5. Nc1nc(/C(=N/O)C(=O)NC2C(=O)N3C(C(=O)O)=C(/C=C/Cn4ccc5cc(=O)c(O)cc-5c4)CS[C@H]23)cs1 (stereo partly shown)    1.6
6. CO/N=C(\C(=O)NC1C(=O)N2C(C(=O)O)=C(/C=C/Cn3cnc4cc(O)c(O)cc43)CS[C@H]12)c1csc(N)n1 (stereo partly shown)    0.8
7. Nc1nc(/C(=N/O)C(=O)NC2C(=O)N3C(C(=O)O)=C(/C=C/Cn4cnc5cc(O)c(O)cc54)CS[C@H]23)cs1 (stereo partly shown)    3.1

----------
Observed MIC for M. luteus 1001, reported per entry below.
experimental-readout: MIC

1) CC(C)(O/N=C(\C(=O)NC1C(=O)N2C(C(=O)O)=C(/C=C/Cn3cnc4cc(O)c(O)cc43)CS[C@H]12)c1csc(N)n1)C(=O)O (stereo partly drawn) [Io]    6.3 µg/mL
2) Nc1nc(/C(=N/O)C(=O)NC2C(=O)N3C(C(=O)[O-])=C(/C=C/C[n+]4cc5cc(O)c(O)cc5cn4)CS[C@H]23)cs1 (stereo partly drawn) [Ik]    0.4 µg/mL
3) Nc1nc(/C(=N/O)C(=O)NC2C(=O)N3C(C(=O)O)=C(/C=C/Cn4ccc5cc(=O)c(O)cc-5c4)CS[C@H]23)cs1 (stereo partly drawn) [Is]    0.4 µg/mL

----------
MIC tested on S. marcescens IPM-15: recorded values
experimental-readout: MIC

1. CC(C)(O/N=C(\C(=O)NC1C(=O)N2C(C(=O)O)=C(/C=C/Cn3cnc4cc(O)c(O)cc43)CS[C@H]12)c1csc(N)n1)C(=O)O (stereo partly drawn) [Io]    > 100 µg/mL
2. Nc1nc(/C(=N/O)C(=O)NC2C(=O)N3C(C(=O)[O-])=C(/C=C/C[n+]4cc5cc(O)c(O)cc5cn4)CS[C@H]23)cs1 (stereo partly drawn) [Ik]    > 100 µg/mL
3. C[n+]1cn(C/C=C/C2=C(C(=O)[O-])N3C(=O)C(NC(=O)/C(=N\OC(C)(C)C(=O)O)c4csc(N)n4)C3SC2)c2cc(O)c(O)cc21 (stereo not drawn) [Ip]    > 100 µg/mL

----------
Let's look at some compounds and their measured MIC.
- Tested on: B. subtilis PCI 219
experimental-readout: MIC (µg/mL)

1) Nc1nc(/C(=N/O)C(=O)NC2C(=O)N3C(C(=O)O)=C(/C=C/Cn4cnc5cc(O)c(O)cc54)CS[C@H]23)cs1 (stereo partly shown)    1.6
2) Nc1nc(/C(=N/O)C(=O)NC2C(=O)N3C(C(=O)O)=C(/C=C/Cn4ccc5cc(=O)c(O)cc-5c4)CS[C@H]23)cs1 (stereo partly shown)    0.8
3) CC(C)(O/N=C(\C(=O)NC1C(=O)N2C(C(=O)[O-])=C(/C=C/C[n+]3cc4cc(O)c(O)cc4cn3)CS[C@H]12)c1csc(N)n1)C(=O)O (stereo partly shown)    12.5
4) CO/N=C(\C(=O)NC1C(=O)N2C(C(=O)O)=C(/C=C/Cn3cnc4cc(O)c(O)cc43)CS[C@H]12)c1csc(N)n1 (stereo partly shown)    3.1

----------
Quick reference: MIC of the listed items.
- Test system: C. terrigena IFO 12685
experimental-readout: MIC

1) CC(C)(O/N=C(\C(=O)NC1C(=O)N2C(C(=O)O)=C(/C=C/Cn3cnc4cc(O)c(O)cc43)CS[C@H]12)c1csc(N)n1)C(=O)O (stereo partly shown)    3.1 µg/mL
2) Nc1nc(/C(=N/O)C(=O)NC2C(=O)N3C(C(=O)[O-])=C(/C=C/C[n+]4cc5cc(O)c(O)cc5cn4)CS[C@H]23)cs1 (stereo partly shown)    0.8 µg/mL
3) C[n+]1cn(C/C=C/C2=C(C(=O)[O-])N3C(=O)C(NC(=O)/C(=N\OC(C)(C)C(=O)O)c4csc(N)n4)C3SC2)c2cc(O)c(O)cc21 (stereo not shown)    1.6 µg/mL
4) Nc1nc(/C(=N/O)C(=O)NC2C(=O)N3C(C(=O)O)=C(/C=C/Cn4cnc5cc(O)c(O)cc54)CS[C@H]23)cs1 (stereo partly shown)    3.1 µg/mL
5) CC(C)(O/N=C(\C(=O)NC1C(=O)N2C(C(=O)[O-])=C(/C=C/C[n+]3cc4cc(O)c(O)cc4cn3)CS[C@H]12)c1csc(N)n1)C(=O)O (stereo partly shown)    0.8 µg/mL
6) Nc1nc(/C(=N/O)C(=O)NC2C(=O)N3C(C(=O)O)=C(/C=C/Cn4ccc5cc(=O)c(O)cc-5c4)CS[C@H]23)cs1 (stereo partly shown)    1.6 µg/mL
7) CO/N=C(\C(=O)NC1C(=O)N2C(C(=O)O)=C(/C=C/Cn3cnc4cc(O)c(O)cc43)CS[C@H]12)c1csc(N)n1 (stereo partly shown)    1.6 µg/mL
